Experiment: inhibitors of TNFa-induced NFkB p65 translocation, primary screen, imaging, HUVEC, MLSMR starter and 10KST1 sets (AID 438);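 note: compound added about 3h40 before a 20 min TNFalpha stimulation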
Details: HUVEC TNFa-induced p65 nuclear translocation; measured here: nuclei count (cytotoxicity indicator), at 2.08 µM
Label true (1) for high-side cell count (at or above 600) and false (0) for low-side cell count (below it).

INSERT INTO assay_data (compound, answer_label) VALUES
  ('Cc1cccc(NCc2ccccc2O)c1', 'false (0)'),
  ('CCCc1cc(C(=O)Nc2sc(C)c(C)c2C(=O)OCC)no1', 'true (1)'),
  ('OCc1nc2ccccc2n1CCCOc1ccccc1', 'false (0)'),
  ('Cc1cc(NC(=O)COc2cccc3cccnc23)no1', 'false (0)'),
  ('COc1ccc(-c2cc3nc4n(c(=O)c3s2)CCC4)cc1', 'false (0)');

Confirm if cell count reported for the compound COc1ccc(Cl)c(NC(=O)NCCN2CCN(c3ccccc3)CC2)c1 is 600 or above.
false (0)

cell count >= 600 for Nc1nc2n(n1)C(c1cccc(Cl)c1)CC(c1ccc(F)cc1)N2 (centres undefined) ?
true (1)

Could you please find out whether O=C1CCCCCC1C1(O)C(=O)Nc2ccccc21 (centres undefined) has cell count that meets 600 or exceeds it?
false (0)

Please tell me: is the compound CN(C)S(=O)(=O)c1ccc(C(=O)N2CCCC2c2nc3ccccc3s2)cc1 (centres undefined) at or over 600 in terms of cell count?
false (0)

Could you verify whether the entry O=C(CN(Cc1ccc(F)cc1)C(=O)c1ccco1)NCc1ccc(F)cc1 shows cell count of no less than 600?
false (0)

Entry COC(=O)C1=C(C)Nc2ncnn2C1c1ccc(C)o1 (centres undefined) : is its cell count no less than 600?
true (1)

Exam item: decide whether the reported cell count for O=C(Cc1c[nH]c2ccccc12)N1CCc2ccccc21 is at least 600.
false (0)

// inclusive: cell count at least 600? input: c1ccc(-c2nc3ccccc3nc2-c2ccccn2)nc1
true (1)

Given COc1ccc(Br)cc1S(=O)(=O)N1CCOCC1 , state whether its cell count is at least 600.
false (0)

Say whether COc1ccccc1N(CC(=O)NC1CCCC1)C(=O)CCC(=O)Nc1cc(C)on1 shows cell count of 600 or more.
false (0)

Quick check, cell count >= 600? CCN(CC)S(=O)(=O)c1cccc(-c2nnc(SCCOc3ccccc3C)o2)c1
false (0)

Hello, I need to know if N#Cc1cnn(Cc2ccc(Cl)cc2)c1N has measured cell count not below 600. Thanks!
true (1)

Dear colleague, could you confirm whether Cc1ccccc1C(=O)NC1CCN(Cc2nnnn2Cc2ccccc2)CC1 has cell count at or above 600?
false (0)

Hi, just wondering whether Cc1cc(NC(=O)CS(=O)(=O)c2cn(Cc3cccc(F)c3)c3ccccc23)no1 shows cell count of 600 or higher.
true (1)

Item COc1ccc(C(NC(=O)c2ccco2)c2ccc(OC)c(OC)c2)cc1 (centres undefined) with cell count of 600 or above?
false (0)

Could you please find out whether CCOC(=O)c1nnc2ccnn2c1N has cell count that meets 600 or exceeds it?
false (0)

Hi, just wondering whether COc1ccc(/C=N/n2c(=O)[nH]c3c([nH]c4ccc(C)cc43)c2=O)cc1CN1CCOCC1 shows cell count of 600 or higher.
true (1)

Threshold query (cell count >= 600) on O=C(CCN1CCN(C(=O)c2ccco2)CC1)Nc1ccc(F)cc1
false (0)

Please check the record O=C(O)CCCCCNc1nc(=S)[nH]c2ccccc12 and state if its cell count is at or above 600.
false (0)

Is reported cell count greater than or equal to 600 here: O=C(O)c1ccc(NC(=O)c2cccs2)cc1
false (0)

Is cell count at least 600? Consider CCOC(=O)C1CCCN(C(=O)Cc2ccc(OC)c(OC)c2)C1 (centres undefined)
true (1)

Would you say O=S(=O)(NCCc1ccncc1)c1cc(Br)ccc1F shows cell count at minimum 600?
false (0)
